Form field: pKi (one value per entry).
target: Serotonin 3 (5-HT3) receptor (Rattus norvegicus, UniProt P35563+Q9JJ16); test: Tested for its binding affinity by measuring its ability to displace [3H]granisetron from 5-hydroxytryptamine 3 receptor in rat cortex
Sequence (P35563 whole entry): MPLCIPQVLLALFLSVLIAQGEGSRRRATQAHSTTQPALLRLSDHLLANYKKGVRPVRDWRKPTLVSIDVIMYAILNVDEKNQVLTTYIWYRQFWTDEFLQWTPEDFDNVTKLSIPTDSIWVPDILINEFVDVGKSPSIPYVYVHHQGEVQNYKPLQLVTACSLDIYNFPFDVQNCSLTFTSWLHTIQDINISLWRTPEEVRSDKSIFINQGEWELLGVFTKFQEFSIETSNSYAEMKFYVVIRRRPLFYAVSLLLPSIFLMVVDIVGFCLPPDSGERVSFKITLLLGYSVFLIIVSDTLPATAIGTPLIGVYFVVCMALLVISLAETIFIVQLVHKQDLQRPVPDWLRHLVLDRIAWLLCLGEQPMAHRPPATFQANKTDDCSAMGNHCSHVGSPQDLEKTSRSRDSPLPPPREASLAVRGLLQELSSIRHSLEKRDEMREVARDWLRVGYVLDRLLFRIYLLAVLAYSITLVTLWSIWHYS
Sequence (Q9JJ16 whole entry): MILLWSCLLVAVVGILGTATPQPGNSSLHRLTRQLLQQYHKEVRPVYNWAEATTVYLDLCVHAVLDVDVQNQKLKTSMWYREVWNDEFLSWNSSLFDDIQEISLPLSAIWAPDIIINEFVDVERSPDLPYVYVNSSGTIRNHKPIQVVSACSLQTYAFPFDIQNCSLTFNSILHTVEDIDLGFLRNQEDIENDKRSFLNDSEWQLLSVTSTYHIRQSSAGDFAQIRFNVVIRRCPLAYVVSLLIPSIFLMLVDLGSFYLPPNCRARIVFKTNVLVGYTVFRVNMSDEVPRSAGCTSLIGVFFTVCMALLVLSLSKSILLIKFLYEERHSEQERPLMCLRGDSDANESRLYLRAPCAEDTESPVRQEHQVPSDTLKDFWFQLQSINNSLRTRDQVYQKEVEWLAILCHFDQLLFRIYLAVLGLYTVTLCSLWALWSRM
pKi: −log10 of the molar value.
Measured quantity: pKi

>  <Compound>
CC(C)n1c(=O)n(C(=O)NC2CC3CCC(C2)N3C)c2ccccc21 (stereo not given)

>  <Measured quantity>
pKi

>  <Result value>
8.80

$$$$
>  <Compound>
CCN(CC)CCNC(=O)c1cc(Cl)c(N)cc1OC [METOCLOPRAMIDE]

>  <Measured quantity>
pKi

>  <Result value>
6.80

$$$$
>  <Compound>
CCCC[N+]12CCCC(C1)C(NC(=O)c1cc(Cl)c(N)cc1OC)CC2 (stereo not given)

>  <Measured quantity>
pKi

>  <Result value>
6.90

$$$$
>  <Compound>
COc1cc(N)c(Cl)cc1C(=O)NC1CCN2CCCC1C2 (stereo not given) [RENZAPRIDE]

>  <Measured quantity>
pKi

>  <Result value>
8.30

$$$$
>  <Compound>
CCn1c(=O)n(C(=O)NC2CC3CCC(C2)N3C)c2ccccc21 (stereo not given)

>  <Measured quantity>
pKi

>  <Result value>
8.40

$$$$

----------
target: 5-hydroxytryptamine receptor 4 (Rattus norvegicus) (UniProt Q62758); experiment: Tested for its efficacy against the 5-hydroxytryptamine 4 receptor located in the rat esophageal tunica muscularis mucosae; type: tissue-based; details: Muscularis mucosa
Sequence (Q62758 whole entry): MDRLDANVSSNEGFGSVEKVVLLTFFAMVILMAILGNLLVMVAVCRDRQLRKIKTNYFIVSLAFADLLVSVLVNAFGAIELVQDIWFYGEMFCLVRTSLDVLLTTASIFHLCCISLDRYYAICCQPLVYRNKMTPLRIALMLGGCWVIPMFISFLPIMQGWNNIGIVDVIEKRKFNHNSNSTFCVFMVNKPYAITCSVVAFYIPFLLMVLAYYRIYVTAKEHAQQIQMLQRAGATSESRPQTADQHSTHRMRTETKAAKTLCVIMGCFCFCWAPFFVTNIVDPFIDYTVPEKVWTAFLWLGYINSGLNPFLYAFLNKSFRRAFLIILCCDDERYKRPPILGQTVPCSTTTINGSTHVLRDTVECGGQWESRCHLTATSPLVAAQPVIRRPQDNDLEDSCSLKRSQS
Measured quantity: Intrinsic activity

>  <Compound>
CCN(CC)CCNC(=O)c1cc(Cl)c(N)cc1OC [METOCLOPRAMIDE]

>  <Measured quantity>
Intrinsic activity

>  <Result value>
0.8

$$$$
>  <Compound>
CC(C)n1c(=O)n(C(=O)NC2CC3CCC(C2)N3C)c2ccccc21 (stereo not given)

>  <Measured quantity>
Intrinsic activity

>  <Result value>
0.9

$$$$
>  <Compound>
CCn1c(=O)n(C(=O)NC2CC3CCC(C2)N3C)c2ccccc21 (stereo not given)

>  <Measured quantity>
Intrinsic activity

>  <Result value>
0.7

$$$$
>  <Compound>
CCCC[N+]12CCCC(C1)C(NC(=O)c1cc(Cl)c(N)cc1OC)CC2 (stereo not given)

>  <Measured quantity>
Intrinsic activity

>  <Result value>
0.79

$$$$
>  <Compound>
COc1cc(N)c(Cl)cc1C(=O)NC1CCN2CCCC1C2 (stereo not given) [RENZAPRIDE]

>  <Measured quantity>
Intrinsic activity

>  <Result value>
0.8

$$$$

----------
molecular target: 5-hydroxytryptamine receptor 4 (Rattus norvegicus); test: Tested for its agonist potency against the 5-hydroxytryptamine 4 receptor located in the rat esophageal tunica muscularis mucosae
Sequence (Q62758 whole entry): as above
Form field: EC50 (one value per entry).

>  <Molecule>
CC(C)n1c(=O)n(C(=O)NC2CC3CCC(C2)N3C)c2ccccc21 (centres undefined)

>  <Tgt>
5-hydroxytryptamine receptor 4 (Rattus norvegicus)

>  <EC50 (nM)>
12.6

$$$$
>  <Molecule>
CCCC[N+]12CCCC(C1)C(NC(=O)c1cc(Cl)c(N)cc1OC)CC2 (centres undefined)

>  <Tgt>
5-hydroxytryptamine receptor 4 (Rattus norvegicus)

>  <EC50 (nM)>
9.55

$$$$
>  <Molecule>
CCn1c(=O)n(C(=O)NC2CC3CCC(C2)N3C)c2ccccc21 (centres undefined)

>  <Tgt>
5-hydroxytryptamine receptor 4 (Rattus norvegicus)

>  <EC50 (nM)>
10

$$$$
>  <Molecule>
COc1cc(N)c(Cl)cc1C(=O)NC1CCN2CCCC1C2 (centres undefined) [RENZAPRIDE]

>  <Tgt>
5-hydroxytryptamine receptor 4 (Rattus norvegicus)

>  <EC50 (nM)>
63.1

$$$$
